Reference source for all entries: patent US11292807B2

System: SKOV3 (ovarian adenocarcinoma)
Assay: CIMA assay, cell viability, SKOV3
Settings: Homo sapiens, SK-OV-3, read-out: Average cell viability, SKOV; 50 ug/mL
measured.quantity: viability at 50 µg/mL (%)
Output spec: scalar in %, unitless text.

{"columns": ["compound", "measured.quantity", "unit.of.measure", "value.observed"],
 "data": [
  ["CC/C=C\\C/C=C\\C/C=C\\C/C=C\\C/C=C\\CCCC(=O)OCC(COC1OC(CO)C(O)C(O)C1O)OC(=O)CCC/C=C\\C/C=C\\C/C=C\\C/C=C\\C/C=C\\CC (centres unmarked)", "viability at 50 µg/mL", "%", 95],
  ["CC/C=C\\C/C=C\\C/C=C\\C/C=C\\CCC(=O)OC(COC(=O)CCCCCCC/C=C\\C/C=C\\C/C=C\\CC)COC1OC(CO)C(O)C(O)C1O (centres unmarked)", "viability at 50 µg/mL", "%", 92],
  ["CCCCCCCCCCCCCCCC(=O)OCC(COC1OC(CO)C(O)C(O)C1O)OC(=O)CCCCCCCCCCCCC (centres unmarked)", "viability at 50 µg/mL", "%", 83],
  ["CCCCC/C=C\\C/C=C\\CCCCCCCC(=O)O", "viability at 50 µg/mL", "%", 67],
  ["CCCCCCCCCCCCCCCC(=O)OCC(O)CO (centres unmarked)", "viability at 50 µg/mL", "%", 52]
]}

Annotate the compound CC/C=C\C/C=C\C/C=C\C/C=C\C/C=C\CCCC(=O)OCC(O)COC1OC(CO)C(O)C(O)C1O (centres unmarked) with its measured viability at 50 µg/mL.
78

Annotate the compound CC/C=C\C/C=C\C/C=C\CCCCCCCC(=O)O with its measured viability at 50 µg/mL.
101

Annotate the compound CC/C=C\C/C=C\C/C=C\C/C=C\C/C=C\CCCC(=O)OCC(COC1OC(CO)C(O)C(O)C1O)OC(=O)CCCCCCCCCCCCCCC (centres unmarked) with its measured viability at 50 µg/mL.
67

---

Tested on: PC3
Test: CIMA assay, cell viability, PC3
Conditions: Homo sapiens, PC-3, read-out: Average cell viability, PC3; 100 ug/mL
Labelling: viability at 100 µg/mL reported below 10% becomes condition met; at or above becomes condition not met.

Here are 6 compounds together with their reported answers.
{"columns": ["compound", "answer.label"],
 "data": [
  ["CCCCC/C=C\\C/C=C\\CCCCCCCC(=O)O [Compound 20, linoleic acid]", "condition met"],
  ["CCCCCCCCCCCCCCCC(=O)OCC(COC1OC(CO)C(O)C(O)C1O)OC(=O)CCCCCCCCCCCCC (centres unmarked) [Compound 16, MGDG C16:0/C14:0]", "condition met"],
  ["CC/C=C\\C/C=C\\C/C=C\\C/C=C\\C/C=C\\CCCC(=O)OCC(COC1OC(CO)C(O)C(O)C1O)OC(=O)CCC/C=C\\C/C=C\\C/C=C\\C/C=C\\C/C=C\\CC (centres unmarked) [Compound 7, MGDG C20:5/C20:5]", "condition not met"],
  ["CCCCCC(O)/C=C/C=C/CCCCCCCC(=O)O (centres unmarked) [77-31-34-6 A, 13-hydroxyoctadeca-9E,11E-dienoic acid]", "condition met"],
  ["CC/C=C\\C/C=C\\C/C=C\\C/C=C\\C/C=C\\CCCC(=O)OCC(O)COC1OC(CO)C(O)C(O)C1O (centres unmarked) [Compound 13, lyso-MGDG C20:5]", "condition not met"],
  ["CC/C=C\\C/C=C\\C/C=C\\C/C=C\\CCC(=O)OC(COC(=O)CCCCCCC/C=C\\C/C=C\\C/C=C\\CC)COC1OC(CO)C(O)C(O)C1O (centres unmarked) [Compound 14, MGDG C18:3/C16:4]", "condition not met"]
]}

Problem: For the compound CC/C=C\C/C=C\C/C=C\CCCCCCCC(=O)O [Compound 19, α-linolenic acid] , is viability at 100 µg/mL under 10%?
condition not met

Problem: For the compound CCCCCCCCCCCCCCCC(=O)OCC(O)CO (centres unmarked) [77-38-41-1 B, MAG (C16:0)] , is viability at 100 µg/mL under 10%?
condition not met

---

System: A549 (lung carcinoma)
Test: CIMA assay (colorimetric indicator of metabolic activity), cell viability, A549
Details: Homo sapiens, A549, read-out: Average cell viability, A549; 50 ug/mL
Quick reference for viability at 50 µg/mL among some compounds
Output spec: scalar in %, unitless text.

{"columns": ["compound", "assay.target", "measured.quantity", "unit.of.measure", "value.observed"],
 "data": [
  ["CCCCCCCCCCCCCCCC(=O)OCC(O)CO (stereo not shown) [77-38-41-1 B, MAG (C16:0)]", "A549 (lung carcinoma)", "viability at 50 µg/mL", "%", 69],
  ["CC/C=C\\C/C=C\\C/C=C\\C/C=C\\C/C=C\\CCCC(=O)OCC(O)COC1OC(CO)C(O)C(O)C1O (stereo not shown) [Compound 13, lyso-MGDG C20:5]", "A549 (lung carcinoma)", "viability at 50 µg/mL", "%", 57],
  ["CC/C=C\\C/C=C\\C/C=C\\C/C=C\\C/C=C\\CCCC(=O)OCC(COC1OC(CO)C(O)C(O)C1O)OC(=O)CCC/C=C\\C/C=C\\C/C=C\\C/C=C\\C/C=C\\CC (stereo not shown) [Compound 7, MGDG C20:5/C20:5]", "A549 (lung carcinoma)", "viability at 50 µg/mL", "%", 55],
  ["CC/C=C\\C/C=C\\C/C=C\\C/C=C\\CCC(=O)OC(COC(=O)CCCCCCC/C=C\\C/C=C\\C/C=C\\CC)COC1OC(CO)C(O)C(O)C1O (stereo not shown) [Compound 14, MGDG C18:3/C16:4]", "A549 (lung carcinoma)", "viability at 50 µg/mL", "%", 88],
  ["CCCCC/C=C\\C/C=C\\CCCCCCCC(=O)O [Compound 20, linoleic acid]", "A549 (lung carcinoma)", "viability at 50 µg/mL", "%", 56],
  ["CCCCCCCCCCCCCCCC(=O)OCC(COC1OC(CO)C(O)C(O)C1O)OC(=O)CCCCCCCCCCCCC (stereo not shown) [Compound 16, MGDG C16:0/C14:0]", "A549 (lung carcinoma)", "viability at 50 µg/mL", "%", 85]
]}

Now, please, on to the next compound.
Give viability at 50 µg/mL for CC/C=C\C/C=C\C/C=C\CCCCCCCC(=O)O [Compound 19, α-linolenic acid] tested on A549 (lung carcinoma).
88

---

System: THP-1 (acute monocytic leukemia)
Assay: CIMA assay, cell viability, THP-1
Settings: THP-1; positive control 250 ug/ml
measured.quantity: Average cell viability (%)
Output spec: scalar in %, unitless text.

Annotate the compound CCCCCCCCCCCCOS(=O)(=O)[O-].[Na+] [SDS, reference compound] with its measured Average cell viability.
16

---

Assay: in vitro
Details: human, Average cell viability
measured.quantity: viability at 72 h, 1 ug/mL (%)
Output spec: scalar in %, unitless text.

{"columns": ["compound", "unit.of.measure", "value.observed"],
 "data": [
  ["CCCCC/C=C\\C/C=C\\CCCCCCCC(=O)O [Compound 20, linoleic acid]", "%", 93]
]}

Now, please, on to the next compound.
Annotate the compound CC/C=C\C/C=C\C/C=C\CCCCCCCC(=O)O [Compound 19, α-linolenic acid] with its measured viability at 72 h, 1 ug/mL.
109

---

System: U373 (glioblastoma-astrocytoma)
Experiment: CIMA assay, cell viability, U373
Conditions: U373, 10 ug/mL; listed as 174-13-14-3
measured.quantity: Average cell viability

Annotate the compound CC/C=C\C/C=C\C/C=C\C/C=C\C/C=C\CCCC(=O)OCC(COC1OC(CO)C(O)C(O)C1O)OC(=O)CCCCCCCCCCCCCCC (stereo not shown) with its measured Average cell viability.
73%

---

Test system: PC3
measured.quantity: viability (AVG) (%)
Output spec: scalar in %, unitless text.

Give viability (AVG) for CCCCCCCCCCCCOS(=O)(=O)[O-].[Na+] [SDS, reference compound] tested on PC3.
77.3

---

System: A549 (lung carcinoma)
Assay: CIMA assay (colorimetric indicator of metabolic activity), cell viability, A549
Settings: A549, 10 ug/mL; listed as 174-13-14-3; unit assumed
measured.quantity: Average cell viability (%)
Output spec: scalar in %, unitless text.

Annotate the molecule CC/C=C\C/C=C\C/C=C\C/C=C\C/C=C\CCCC(=O)OCC(COC1OC(CO)C(O)C(O)C1O)OC(=O)CCCCCCCCCCCCCCC (stereo not shown) with its measured Average cell viability.
52

---

Tested on: PC3
Assay: CIMA assay, cell viability, PC3
Settings: PC3, sample at 10 ug/mL
measured.quantity: PC3 AVG

Solved cases below.
{"columns": ["molecule", "value.observed"],
 "data": [
  ["CCCCC/C=C\\C/C=C\\CCCCCCCC(=O)O", 1.00],
  ["CC/C=C\\C/C=C\\C/C=C\\C/C=C\\C/C=C\\CCCC(=O)OCC(O)COC1OC(CO)C(O)C(O)C1O (centres unmarked)", 1.01],
  ["CC/C=C\\C/C=C\\C/C=C\\CCCCCCCC(=O)O", 1.07],
  ["CC/C=C\\C/C=C\\C/C=C\\C/C=C\\CCC(=O)OC(COC(=O)CCCCCCC/C=C\\C/C=C\\C/C=C\\CC)COC1OC(CO)C(O)C(O)C1O (centres unmarked)", 1.01]
]}

Now, please, on to the next molecule.
Annotate the molecule CC/C=C\C/C=C\C/C=C\C/C=C\C/C=C\CCCC(=O)OCC(COC1OC(CO)C(O)C(O)C1O)OC(=O)CCC/C=C\C/C=C\C/C=C\C/C=C\C/C=C\CC (centres unmarked) with its measured PC3 AVG.
1.07
